Value source: the supplement of paper PMC12494721

Tested on: Clostridium sporogenes DSM 1664
PROCEDURE_TEXT: growth (OD595) fold change vs plate DMSO controls (fold change (ratio)); higher = more growth
EXPERIMENTAL_CONDITIONS: incubation time: 27 h, anaerobic, 37 °C
Where a name gives a salt, the structure may show the parent alone.
Give measured growth for each item. Keep answers brief.
Numbers only.

Quick one: give me growth for each item below, same order please.
1. CC(C)NCC(O)c1cc(O)cc(O)c1 (centres undefined) [Metaproterenol sulfate] (20 µM)
2. Cc1cc(C#N)cc(C)c1Oc1nc(Nc2ccc(C#N)cc2)nc(N)c1Br [Etravirine] (20 µM)
3. COc1cc(C(=O)NS(=O)(=O)c2ccccc2C)ccc1Cc1cn(C)c2ccc(NC(=O)OC3CCCC3)cc12 [Zafirlukast] (20 µM)
4. CC(C)NC[C@H](O)COc1cccc2ccccc12 [(S)-(-)-Propranolol hydrochloride] (20 µM)
5. NC[C@H]1CC[C@H](C(=O)O)CC1 [Tranexamic acid] (20 µM)
6. C[C@H](CCC(=O)O)[C@H]1CC[C@H]2[C@@H]3[C@@H](O)C[C@@H]4C[C@H](O)CC[C@]4(C)[C@H]3CC[C@]12C [Urosiol] (20 µM)
7. CC(C)NCC(O)COc1cccc2[nH]c3ccccc3c12 (centres undefined) [Carazolol] (20 µM)
8. C=C1CC[C@H](O)C/C1=C/C=C1\CCC[C@]2(C)[C@@H]([C@H](C)CCCC(C)C)CC[C@@H]12 [Cholecalciferol] (20 µM)

stdout:
1. 0.982
2. 1.06
3. 0.542
4. 0.943
5. 1.06
6. 0.969
7. 0.738
8. 0.913

stdin: Hi! What's the reported growth for COc1cccc(N(C)C(=S)Oc2ccc3c(c2)CCCC3)n1 [Liranaftate] (20 µM) on Clostridium sporogenes DSM 1664?
stdout: 1.1
